In this section we review reported growth inhibition values for a set of compounds.
- protocolNotes: NCI Yeast Anticancer Drug Screen. Data for the bub3 strain (AID 167)
- testSettings: S. cerevisiae bub3 mutant strain, at 50.0 µM, hits give high values
About 79,000 compounds went through this panel and 15% of them were active in at least one assay; those are over-represented in the sample as a whole. Where a SMILES comes first, the peptide text is derived from it. [ ]: non-standard residue; d: D form. The star is where a group is joined. ξ: configuration not given here. ξE = NC(CCC(=O)O)C(=O)O; Cbz = O=C(OCc1ccccc1)*

{"columns": ["compound", "growth inhibition [%]"],
 "data": [
  ["CC(=O)c1cccc(C(=O)O)c1", -2.35],
  ["Nc1nc(Cc2ccccc2)c(CCCNc2ccccc2)c(=O)[nH]1", 1.75],
  ["CCCCCC(=O)Nc1ccccc1", -10.9],
  ["Cc1nc(-c2nc(C)c(C(=O)NN(C)C)s2)sc1C(=O)NN(C)C", 3.1],
  ["CN(N)c1nc2c(N)ncnc2n1C1OC(CO)C(O)C1O (stereo not drawn)", 30],
  ["[Cl][Ce]([Cl])[Cl]", 24.1],
  ["CC(=O)SC1CC(=O)OC1=O (stereo not drawn)", 0.2],
  ["O=C(Nc1ccc2ccccc2c1)C1CC1", -33.1],
  ["CC(C)(C#N)CCCS(C)(=O)=O", -12.6],
  ["O=S(=O)(c1cnccc1N1CCN(CCO)CC1)N1CCCC1", 3.05],
  ["O=C(O)CCC(NC(=O)OCc1ccccc1)C(=O)NCC(=O)O (stereo not drawn) (Cbz-[ξE]-Gly-OH)", 3.15],
  ["N#CC(c1cnc2ccccc2n1)c1cccc2ccccc12 (stereo not drawn)", -5.3],
  ["COc1ccc(-c2cc(-c3ccc(OC)cc3)cc(-c3ccc(OC)cc3)c2)cc1", -14]
]}
